tested_target: Vascular endothelial growth factor receptor 2 (Homo sapiens)
Sequence (P35968 whole entry): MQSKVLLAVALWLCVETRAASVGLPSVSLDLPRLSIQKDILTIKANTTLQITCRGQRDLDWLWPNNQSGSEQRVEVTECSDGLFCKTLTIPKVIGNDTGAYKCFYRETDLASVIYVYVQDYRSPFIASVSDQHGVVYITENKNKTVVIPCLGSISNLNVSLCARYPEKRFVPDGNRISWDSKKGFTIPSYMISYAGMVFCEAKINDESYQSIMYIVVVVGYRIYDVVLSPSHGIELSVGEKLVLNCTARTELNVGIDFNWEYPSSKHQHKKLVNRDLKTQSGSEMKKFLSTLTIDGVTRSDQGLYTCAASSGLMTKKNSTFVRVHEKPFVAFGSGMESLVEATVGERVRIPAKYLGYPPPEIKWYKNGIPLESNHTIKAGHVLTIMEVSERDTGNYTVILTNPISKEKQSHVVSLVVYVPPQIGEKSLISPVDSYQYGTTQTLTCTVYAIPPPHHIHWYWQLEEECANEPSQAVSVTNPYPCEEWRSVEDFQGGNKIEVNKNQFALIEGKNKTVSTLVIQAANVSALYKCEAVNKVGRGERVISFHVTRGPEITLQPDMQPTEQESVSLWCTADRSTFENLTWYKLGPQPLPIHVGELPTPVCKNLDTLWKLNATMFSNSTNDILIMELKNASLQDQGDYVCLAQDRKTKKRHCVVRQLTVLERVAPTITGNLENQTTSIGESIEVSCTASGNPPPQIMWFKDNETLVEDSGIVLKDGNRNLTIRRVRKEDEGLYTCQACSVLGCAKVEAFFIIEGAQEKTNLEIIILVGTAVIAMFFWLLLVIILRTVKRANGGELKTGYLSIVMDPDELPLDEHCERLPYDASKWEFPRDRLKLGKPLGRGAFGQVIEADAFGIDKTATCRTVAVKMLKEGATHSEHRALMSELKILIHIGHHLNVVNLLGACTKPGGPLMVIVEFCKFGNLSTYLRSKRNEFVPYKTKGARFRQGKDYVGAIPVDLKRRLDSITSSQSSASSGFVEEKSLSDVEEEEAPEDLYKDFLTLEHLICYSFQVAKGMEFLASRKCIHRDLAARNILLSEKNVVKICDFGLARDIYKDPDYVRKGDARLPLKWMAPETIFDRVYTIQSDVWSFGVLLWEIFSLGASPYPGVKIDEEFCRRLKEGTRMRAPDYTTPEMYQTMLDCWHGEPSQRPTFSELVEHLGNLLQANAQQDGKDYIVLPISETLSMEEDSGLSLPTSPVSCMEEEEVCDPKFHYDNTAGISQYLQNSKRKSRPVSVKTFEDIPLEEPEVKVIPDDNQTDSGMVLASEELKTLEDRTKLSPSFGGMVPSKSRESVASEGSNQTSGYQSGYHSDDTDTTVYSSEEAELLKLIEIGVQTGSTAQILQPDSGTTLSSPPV
assay_overview: Inhibition of human VEGFR2 in presence of 1 mM ATP
Recorded measurements of IC50, one per entry

Here are 2 compounds together with their reported answers.
compound: CCOc1cc2ncc(C#N)c(Nc3ccc(OCc4ccccn4)c(Cl)c3)c2cc1NC(=O)/C=C/CN(C)C [NERATINIB]
IC50: > 10 µM
--
compound: CCOc1cc2ncc(C#N)c(Nc3ccc(F)c(Cl)c3)c2cc1NC(=O)/C=C/CN(C)C [PELITINIB]
IC50: > 10 µM

# input Supply recorded IC50 for COc1cc2ncnc(Nc3cccc(Br)c3)c2cc1OC here.
# output > 10 µM
